Source listed as ChEMBL document CHEMBL4138213.

PROTOCOL NOTES: MRT (0 to infinity) in Wistar rat at 80 mg/kg, iv after 0.05 to 24 hrs by HPLC-MS/MS analysis
Assay type: ADME, organism-based
CONDITION PARAMETERS: Wistar, in vivo
PARAMETER: MRT inf (h)

compound="O=c1[nH]cc(F)c(=O)[nH]1 [FLUOROURACIL]" parameter="MRT inf" test_result=2.48
compound="CC(C)C[C@H](NC(=O)[C@@H](O)[C@H](N)Cc1ccccc1)C(=O)O [UBENIMEX]" parameter="MRT inf" test_result=3.44
compound=CC(C)C[C@H](NC(=O)[C@@H](O)[C@H](N)Cc1ccccc1)C(=O)NCC(=O)O.Cl parameter="MRT inf" test_result=3.22

====

Tested on: HepG2
PROTOCOL NOTES: cells
CONDITION PARAMETERS: Homo sapiens, HepG2, 48 h
# key: entry, value: IC50
PARAMETER: IC50 (µM)

compound="CC(C)C[C@H](NC(=O)[C@@H](O)[C@H](N)Cc1ccccc1)C(=O)O [UBENIMEX]" comparison_symbol=> test_result=500
compound="O=c1[nH]cc(F)c(=O)[nH]1 [FLUOROURACIL]" comparison_symbol== test_result=18.4
compound=CC(C)C[C@H](NC(=O)[C@@H](O)[C@H](N)Cc1ccccc1)C(=O)NCC(=O)OCn1cc(F)c(=O)[nH]c1=O.Cl comparison_symbol== test_result=14.2

====

# key: entry, value: AUC(0-inf)
PROTOCOL NOTES: AUC (0 to infinity) in Wistar rat at 80 mg/kg, iv after 0.05 to 24 hrs by HPLC-MS/MS analysis
Type: ADME, organism-based
Design: dose 80 mg/kg, time infinity, route intravenous
CONDITION PARAMETERS: in vivo
PARAMETER: AUC(0-inf) (ng·h/mL)

compound_structure_string=O=c1[nH]cc(F)c(=O)[nH]1 test_result=13600
compound_structure_string=CC(C)C[C@H](NC(=O)[C@@H](O)[C@H](N)Cc1ccccc1)C(=O)NCC(=O)O.Cl test_result=36200
compound_structure_string=CC(C)C[C@H](NC(=O)[C@@H](O)[C@H](N)Cc1ccccc1)C(=O)NCC(=O)OCn1cc(F)c(=O)[nH]c1=O.Cl test_result=14700
compound_structure_string=CC(C)C[C@H](NC(=O)[C@@H](O)[C@H](N)Cc1ccccc1)C(=O)O test_result=11500

====

PROTOCOL NOTES: Apparent clearance in Wistar rat at 80 mg/kg, iv after 0.05 to 24 hrs by HPLC-MS/MS analysis
Type: ADME, organism-based
CONDITION PARAMETERS: in vivo, read-out: CL(app) (converted)
PARAMETER: clearance (mL/min/kg)

compound_structure_string=CC(C)C[C@H](NC(=O)[C@@H](O)[C@H](N)Cc1ccccc1)C(=O)O value_unit=mL/min/kg test_result=116
compound_structure_string=O=c1[nH]cc(F)c(=O)[nH]1 value_unit=mL/min/kg test_result=98.4
compound_structure_string=CC(C)C[C@H](NC(=O)[C@@H](O)[C@H](N)Cc1ccccc1)C(=O)NCC(=O)OCn1cc(F)c(=O)[nH]c1=O.Cl value_unit=mL/min/kg test_result=90.5
compound_structure_string=CC(C)C[C@H](NC(=O)[C@@H](O)[C@H](N)Cc1ccccc1)C(=O)NCC(=O)O.Cl value_unit=mL/min/kg test_result=36.8

====

Tested on: A549
PROTOCOL NOTES: Antiproliferative activity against human A549 cells in presence of 5-FU after 48 hrs by MTT assay
CONDITION PARAMETERS: A549, 48 h
pIC50: −log10 of the molar value.
PARAMETER: pIC50

compound="CC(C)C[C@H](NC(=O)[C@@H](O)[C@H](N)Cc1ccccc1)C(=O)O [UBENIMEX]" parameter=pIC50 test_result=4.80

====

Tested on: Rattus norvegicus
PROTOCOL NOTES: VRT (0 to infinity) in Wistar rat at 80 mg/kg, iv after 0.05 to 24 hrs by HPLC-MS/MS analysis
Assay type: ADME, organism-based
CONDITION PARAMETERS: in vivo
# key: entry, value: VRT
PARAMETER: VRT

compound="O=c1[nH]cc(F)c(=O)[nH]1 [FLUOROURACIL]" test_result="4.205 hr2"
compound=CC(C)C[C@H](NC(=O)[C@@H](O)[C@H](N)Cc1ccccc1)C(=O)NCC(=O)O.Cl test_result="3.797 hr2"
compound=CC(C)C[C@H](NC(=O)[C@@H](O)[C@H](N)Cc1ccccc1)C(=O)NCC(=O)OCn1cc(F)c(=O)[nH]c1=O.Cl test_result="4.423 hr2"
compound="CC(C)C[C@H](NC(=O)[C@@H](O)[C@H](N)Cc1ccccc1)C(=O)O [UBENIMEX]" test_result="13.087 hr2"

====

Test system: HCT-116
PROTOCOL NOTES: cells
CONDITION PARAMETERS: Homo sapiens, HCT-116, 48 h
pIC50: −log10 of the molar value.
PARAMETER: pIC50

compound_structure_string=O=c1[nH]cc(F)c(=O)[nH]1 test_result=4.36

====

# key: entry, value: pIC50
System: U-266
PROTOCOL NOTES: Antiproliferative activity against human U266 cells after 48 hrs by MTT assay
CONDITION PARAMETERS: U-266, 48 h
pIC50: −log10 of the molar value.
PARAMETER: pIC50

compound_structure_string=CC(C)C[C@H](NC(=O)[C@@H](O)[C@H](N)Cc1ccccc1)C(=O)NCC(=O)OCn1cc(F)c(=O)[nH]c1=O.Cl comparison_symbol== test_result=4.50
compound_structure_string=CC(C)C[C@H](NC(=O)[C@@H](O)[C@H](N)Cc1ccccc1)C(=O)O comparison_symbol=< test_result=3.30
compound_structure_string=O=c1[nH]cc(F)c(=O)[nH]1 comparison_symbol== test_result=4.18

====

# key: entry, value: Vd
PROTOCOL NOTES: Volume of distribution during elimination phase in Wistar rat at 80 mg/kg, iv after 0.05 to 24 hrs by HPLC-MS/MS analysis
Format: ADME, organism-based
CONDITION PARAMETERS: in vivo, read-out: Vz
PARAMETER: Vd (L/kg)

compound="O=c1[nH]cc(F)c(=O)[nH]1 [FLUOROURACIL]" test_result=20.1
compound="CC(C)C[C@H](NC(=O)[C@@H](O)[C@H](N)Cc1ccccc1)C(=O)O [UBENIMEX]" test_result=34.2
compound=CC(C)C[C@H](NC(=O)[C@@H](O)[C@H](N)Cc1ccccc1)C(=O)NCC(=O)O.Cl test_result=3.93
compound=CC(C)C[C@H](NC(=O)[C@@H](O)[C@H](N)Cc1ccccc1)C(=O)NCC(=O)OCn1cc(F)c(=O)[nH]c1=O.Cl test_result=6.23

====

# key: entry, value: pIC50
System: U-937
PROTOCOL NOTES: cells
CONDITION PARAMETERS: Homo sapiens, U-937, 48 h
Description: Antiproliferative activity against human U937 cells after 48 hrs by MTT assay
pIC50: −log10 of the molar value.
PARAMETER: pIC50

compound_structure_string=CC(C)C[C@H](NC(=O)[C@@H](O)[C@H](N)Cc1ccccc1)C(=O)O test_result=3.85
compound_structure_string=CC(C)C[C@H](NC(=O)[C@@H](O)[C@H](N)Cc1ccccc1)C(=O)NCC(=O)OCn1cc(F)c(=O)[nH]c1=O.Cl test_result=4.99
compound_structure_string=O=c1[nH]cc(F)c(=O)[nH]1 test_result=4.54

====

PROTOCOL NOTES: Antiproliferative activity against human H7402 cells after 48 hrs by MTT assay
CONDITION PARAMETERS: H7402, 48 h
pIC50: −log10 of the molar value.
# key: entry, value: pIC50
PARAMETER: pIC50

compound_structure_string=CC(C)C[C@H](NC(=O)[C@@H](O)[C@H](N)Cc1ccccc1)C(=O)NCC(=O)OCn1cc(F)c(=O)[nH]c1=O.Cl test_result=4.70
compound_structure_string=O=c1[nH]cc(F)c(=O)[nH]1 test_result=4.66

====

PROTOCOL NOTES: Cmax in Wistar rat at 80 mg/kg, iv after 0.05 to 24 hrs by HPLC-MS/MS analysis
Format: ADME, organism-based
Design: dose 80 mg/kg, route intravenous
CONDITION PARAMETERS: in vivo
PARAMETER: Cmax (ng/mL)

compound_structure_string=CC(C)C[C@H](NC(=O)[C@@H](O)[C@H](N)Cc1ccccc1)C(=O)O test_result=2300
compound_structure_string=O=c1[nH]cc(F)c(=O)[nH]1 test_result=3810
compound_structure_string=CC(C)C[C@H](NC(=O)[C@@H](O)[C@H](N)Cc1ccccc1)C(=O)NCC(=O)OCn1cc(F)c(=O)[nH]c1=O.Cl test_result=5870
compound_structure_string=CC(C)C[C@H](NC(=O)[C@@H](O)[C@H](N)Cc1ccccc1)C(=O)NCC(=O)O.Cl test_result=8570
